Target: von Hippel-Lindau disease tumor suppressor/Bromodomain-containing protein 4 (Homo sapiens) (UniProt O60885+P40337)
Sequence (P40337 whole entry, looked up, other chains not shown): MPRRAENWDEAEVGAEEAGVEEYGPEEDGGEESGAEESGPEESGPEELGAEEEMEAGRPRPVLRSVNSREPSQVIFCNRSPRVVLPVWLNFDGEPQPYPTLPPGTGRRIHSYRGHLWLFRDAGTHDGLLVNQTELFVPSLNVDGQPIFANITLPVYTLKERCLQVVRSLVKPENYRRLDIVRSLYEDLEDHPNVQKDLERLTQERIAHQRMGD
Test: Protac activity at VHL/BRD4 in human HeLa cells assessed as BRD4 degradation at 500 nM measured after 12 hrs by Western blot analysis
Type: cell-based
endpointName: Activity (%)

CC[C@@H]1C(=O)N(C)c2cnc(Nc3ccc(C(=O)NC4CCN(CCCCCCCC(=O)N[C@H](C(=O)N5C[C@H](O)C[C@H]5C(=O)NCc5ccc(-c6scnc6C)cc5)C(C)(C)C)CC4)cc3OC)nc2N1C1CCCC1 22

(I) CC[C@@H]1C(=O)N(C)c2cnc(Nc3ccc(C(=O)NC4CCN(CCCCCCC(=O)N[C@H](C(=O)N5C[C@H](O)C[C@H]5C(=O)NCc5ccc(-c6scnc6C)cc5)C(C)(C)C)CC4)cc3OC)nc2N1C1CCCC1
(II) CC[C@@H]1C(=O)N(C)c2cnc(Nc3ccc(C(=O)NC4CCN(CCCCCCCCCC(=O)N[C@H](C(=O)N5C[C@H](O)C[C@H]5C(=O)NCc5ccc(-c6scnc6C)cc5)C(C)(C)C)CC4)cc3OC)nc2N1C1CCCC1
(III) CC[C@@H]1C(=O)N(C)c2cnc(Nc3ccc(C(=O)NC4CCN(CCCCCC(=O)N[C@H](C(=O)N5C[C@H](O)C[C@H]5C(=O)NCc5ccc(-c6scnc6C)cc5)C(C)(C)C)CC4)cc3OC)nc2N1C1CCCC1
Exam item: Reorder: Activity, max to min. Please list each label once, in the requested order.
Marked response: II, I, III
(II: 50%, I: 10%, III: 7%)
